Recorded measurements of inhibition at 30 µM, one per entry
# measured.target: autotaxin (Homo sapiens)
# measurement.notes: Autotaxin inhibitor screening assay (phosphodiesterase activity, p-nitrophenol cleaved from bis-(p-nitrophenyl) phosphate, absorbance 410 nm)
# Format: biochemical
# assay.context: pH 9, compound at 30 μM; BNPP 3 mM, pH 9.0, 37° C., 30 minutes; read-out: Inhibition

Example results:
O=C(O)c1ccc(/C=C2\CCc3c(OCc4cc(F)c(F)cc4F)cccc3C2=O)cc1 = 50 to 80%
CS(=O)(=O)N1CCN(C(=O)c2ccc(COc3ccc4c(c3)C/C(=C\c3cc(Cl)cc(Cl)c3)C4=O)cc2)CC1 = < 50%
O=C(O)c1ccc(/C=C2\Cc3cccc(OCc4cc(F)c(F)cc4F)c3C2=O)cc1 = 50 to 80%

Task item: Return reported inhibition at 30 µM; argument: "O=C1/C(=C/c2ccc(OCc3cc(F)c(F)cc3F)cc2)CCc2cc(O)ccc21"
Reply: < 50%

Task item: # input molecule: O=C1c2ccc(O)cc2CCC1CN1CCN(C(=O)OCc2cc(Cl)cc(Cl)c2)CC1 (stereo not shown) ; wanted: its inhibition at 30 µM
Reply: > 80%

Task item: Report inhibition at 30 µM for "O=C(O)c1ccc(COc2ccc3c(c2)C/C(=C\c2ccc(OCc4cc(F)c(F)cc4F)c(F)c2)C3=O)cc1" please.
Reply: 50 to 80%

Task item: Data request, read-out inhibition at 30 µM, for "CS(=O)(=O)Cc1ccc(COc2ccc3c(c2)C/C(=C\c2cc(Cl)cc(Cl)c2)C3=O)cc1"
Reply: < 50%

Task item: Could you share which inhibition at 30 µM value was measured for "O=C(O)c1ccc(/C=C2\CCc3cc(OCCc4ccc(F)cc4)ccc3C2=O)cc1" ?
Reply: 50 to 80%

====

Catalogue of inhibition at 30 µM readings, one per entry.
# measured.target: autotaxin (Homo sapiens)
# measurement.notes: Autotaxin inhibitor screening assay (phosphodiesterase activity, p-nitrophenol cleaved from bis-(p-nitrophenyl) phosphate, absorbance 410 nm)
# Type: biochemical
# assay.context: pH 9, compound at 30 μM; BNPP 3 mM, pH 9.0, 37° C., 30 minutes; read-out: Inhibition

Task item: So what inhibition at 30 µM did "O=C(O)Cc1ccc(COc2ccc3c(c2)C/C(=C\c2cc(Cl)cc(Cl)c2)C3=O)cc1" get with autotaxin (Homo sapiens)?
Reply: > 80%

Task item: // fetch autotaxin (Homo sapiens) inhibition at 30 µM for "O=C(Nc1ccc(F)c(F)c1)c1ccc2c(c1)C(=O)N(Cc1cccc(C(F)(F)F)c1)C2=O"
Reply: 50 to 80%

Task item: Requested read-out inhibition at 30 µM, target or system autotaxin (Homo sapiens), entry O=C(O)c1ccc(COc2ccc3c(c2)CC(Cc2cc(Cl)cc(Cl)c2)C3=O)cc1 (stereo not shown)
Reply: > 80%

Task item: Query for autotaxin (Homo sapiens): what inhibition at 30 µM does the record show for O=C(O)c1cc(CC2CCc3cc(OCCc4cc(F)ccc4F)ccc3C2=O)ccc1O (stereo not shown) ?
Reply: 50 to 80%

====

# measured.target: autotaxin (Homo sapiens, UniProt Q13822)
# measurement.notes: Autotaxin inhibitor screening assay (phosphodiesterase activity, p-nitrophenol cleaved from bis-(p-nitrophenyl) phosphate, absorbance 410 nm)
# Assay type: biochemical
# assay.context: pH 9, compound at 30 μM; BNPP 3 mM, pH 9.0, 37° C., 30 minutes; read-out: Inhibition
Parameter inhibition at 30 µM: see the listing below.

Example entries and their recorded answers appear below.
O=C1c2ccc(OCCc3cc(F)ccc3F)cc2CCC1Cc1ccc(O)c(O)c1 (stereo not shown) [Compound 53] = > 80%
CS(=O)(=O)NC(=O)c1ccc(COc2ccc3c(c2)C/C(=C\c2cc(Cl)cc(Cl)c2)C3=O)cc1 [Compound 125] = > 80%
O=C(CCc1ccc(CC2CCc3cc(O)ccc3C2=O)cc1)c1ccc(F)c(F)c1 (stereo not shown) [Compound 81] = 50 to 80%
O=C(Nc1ccc(CC2CCc3cc(O)ccc3C2=O)cc1)OCc1ccc(Cl)c(Cl)c1 (stereo not shown) [Compound 68] = > 80%
CONC(=O)c1ccc(COc2ccc3c(c2)C/C(=C\c2cc(Cl)cc(Cl)c2)C3=O)cc1 [Compound 127] = 50 to 80%

Task item: Requested read-out: inhibition at 30 µM. Entry: O=C(O)c1ccc(/C=C2\Cc3cc(OCc4cc(F)c(F)cc4F)ccc3C2=O)cc1 [Compound 10]
Reply: < 50%

Task item: inhibition at 30 µM for O=C(O)c1ccc(COc2ccc3c(c2)C/C(=C\c2cc(Cl)cc(C(F)(F)F)c2)C3=O)cc1 [Compound 129] ?
Reply: 50 to 80%

Cited source: patent US11091421B2
